I'd be grateful if you could share measured pKi for these entries.
- measuredOn: Sigma non-opioid intracellular receptor 1 (Homo sapiens, UniProt Q99720)
- Sequence (Q99720 whole entry): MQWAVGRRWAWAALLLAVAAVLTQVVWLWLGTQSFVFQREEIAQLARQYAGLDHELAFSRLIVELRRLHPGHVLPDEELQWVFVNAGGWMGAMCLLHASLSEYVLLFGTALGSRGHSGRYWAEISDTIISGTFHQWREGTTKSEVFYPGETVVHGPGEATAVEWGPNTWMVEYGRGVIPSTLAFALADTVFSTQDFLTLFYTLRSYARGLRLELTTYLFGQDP
- methodNotes: Displacement of [3H]-Pentazocine from sigma 1 receptor (unknown origin) expressed in HEK293T cell membranes
Convention used: pKi is expressed as -log10 of the molar concentration.

[Q] Sample Fc1ccc2c(c1)CC(CCN1CCCN(c3ccccn3)CC1)C2 (stereo unspecified) — what was its pKi?
[A] 7.66

[Q] Please look up its pKi: `O=C1C(CCN2CCCN(c3ccc(Cl)cc3)CC2)=Cc2cc(F)ccc21`
[A] 7.11

[Q] // pKi lookup, key: `O=C1C(CCN2CCCN(c3ccc(Cl)cc3)CC2)=Cc2cc(Cl)ccc21`
[A] 8.31

[Q] Fill in: pKi of O=C1c2ccc(Cl)cc2CC1CCN1CCN(c2ccc(Cl)cc2)CC1 (stereo unspecified) is ___
[A] 7.68

[Q] // pKi lookup, key: O/N=C1/c2ccc(F)cc2CC1CCN1CCCN(c2ccc(Cl)cc2)CC1 (stereo unspecified)
[A] 6.56

[Q] Please look up its pKi: O=C1c2ccc(F)cc2CC1CCN1CCCN(c2ccc(Cl)cc2)CC1 (stereo unspecified)
[A] 7.20

[Q] Quick check: pKi of O=C1c2ccc(F)cc2CC1CCN1CCCN(c2ccc(Cl)cn2)CC1 (stereo unspecified) ?
[A] 7.80

[Q] Reported pKi, molecule O=C1c2ccc(F)cc2CC1CCN1CCCN(c2ccccn2)CC1 (stereo unspecified) : ____
[A] 7.36

[Q] Item `O/N=C(\CCCN1CCCN(c2ccc(Cl)cc2)CC1)c1ccc(F)cc1` has what recorded pKi?
[A] 8.29

[Q] Find the recorded pKi belonging to O=C1c2ccccc2CC1CCN1CCCN(c2ccc(Cl)cc2)CC1 (stereo unspecified) and report it.
[A] 7.68

[Q] Look up pKi: O=C1c2ccc(Cl)cc2CC1CCN1CCCN(c2ccc(Cl)cc2)CC1 (stereo unspecified)
[A] 7.59

###

- Test system: PANC-1
- methodNotes: Cytotoxicity against human PANC1 cells assessed as reduction in cell viability resazurin reagent based fluorescent assay
- Format: functional
propertyLabel: IC50 (µM)
Give the value, in units of µM, as a plain number.

[Q] Report IC50 for `O=C(CCCN1CCCN(c2ccc(Cl)cc2)CC1)c1ccc(F)cc1` tested on PANC-1.
[A] 0.4

[Q] Record O=C1c2ccc(F)cc2CC1CCN1CCCN(c2ccc(Cl)cn2)CC1 (centres undefined) : what is its IC50 with PANC-1?
[A] 51

[Q] PANC-1 / IC50 / O/N=C1/c2ccc(F)cc2CC1CCN1CCCN(c2ccc(Cl)cc2)CC1 (centres undefined) : value?
[A] 76

[Q] Record `O/N=C(\CCCN1CCCN(c2ccc(Cl)cc2)CC1)c1ccc(F)cc1` : what is its IC50 with PANC-1?
[A] 0.14

###

Please provide measured Ki for the entries that follow.
- methodNotes: Displacement of [3H]-DTG from sigma 2 receptor (unknown origin) expressed in HEK293T cell membranes
- Parameters: species or system Homo sapiens
Give me the value, and tack the unit on after it.

[Q] Recorded Ki for O=C1c2ccc(F)cc2CC1CCN1CCCN(c2ccccn2)CC1 (stereo unspecified) , please?
[A] 1.8 nM

[Q] Query (compound): Fc1ccc2c(c1)CC(CCN1CCCN(c3ccccn3)CC1)C2 (stereo unspecified) ; field requested: Ki
[A] 1.4 nM

[Q] Name the recorded Ki for `O=C1C(CCN2CCCN(c3ccc(Cl)cc3)CC2)=Cc2cc(Cl)ccc21` .
[A] 13 nM

[Q] Suppose we examine the compound O=C1c2ccc(F)cc2CC1CCN1CCCN(c2ccc(Cl)cc2)CC1 (stereo unspecified) ; what Ki value has been reported?
[A] 0.6 nM

[Q] I am curious: what Ki value has been reported for `O=C1C(CCN2CCCN(c3ccc(Cl)cc3)CC2)=Cc2cc(F)ccc21` ?
[A] 20 nM

[Q] # input compound: O=C1c2ccc(Cl)cc2CC1CCN1CCCN(c2ccc(Cl)cc2)CC1 (stereo unspecified) ; wanted: its Ki
[A] 19 nM

[Q] // Ki lookup, key: O=C1c2ccc(F)cc2CC1CCN1CCCN(c2ccc(Cl)cn2)CC1 (stereo unspecified)
[A] 0.7 nM

[Q] What does the data say about its Ki? Entry: O=C1c2ccc(Cl)cc2CC1CCN1CCN(c2ccc(Cl)cc2)CC1 (stereo unspecified)
[A] 18 nM

[Q] Need Ki of `O/N=C(\CCCN1CCCN(c2ccc(Cl)cc2)CC1)c1ccc(F)cc1` , thanks.
[A] 3.5 nM

[Q] Query: Ki; subject: O=C1c2ccccc2CC1CCN1CCCN(c2ccc(Cl)cc2)CC1 (stereo unspecified)
[A] 4.4 nM

[Q] Could you share which Ki value was measured for O/N=C1/c2ccc(F)cc2CC1CCN1CCCN(c2ccc(Cl)cc2)CC1 (stereo unspecified) ?
[A] 407 nM

Reference for the values: ChEMBL document CHEMBL4390693
